From: patent US9273040B2

Provide the recorded pIC50 for the entries that follow.
- Target of assay: human Nav1.7 channels stably expressed in HEK 293 cells (Homo sapiens, UniProt Q15858)
- Construct: expressed in transfected cells
- Sequence (Q15858 whole entry): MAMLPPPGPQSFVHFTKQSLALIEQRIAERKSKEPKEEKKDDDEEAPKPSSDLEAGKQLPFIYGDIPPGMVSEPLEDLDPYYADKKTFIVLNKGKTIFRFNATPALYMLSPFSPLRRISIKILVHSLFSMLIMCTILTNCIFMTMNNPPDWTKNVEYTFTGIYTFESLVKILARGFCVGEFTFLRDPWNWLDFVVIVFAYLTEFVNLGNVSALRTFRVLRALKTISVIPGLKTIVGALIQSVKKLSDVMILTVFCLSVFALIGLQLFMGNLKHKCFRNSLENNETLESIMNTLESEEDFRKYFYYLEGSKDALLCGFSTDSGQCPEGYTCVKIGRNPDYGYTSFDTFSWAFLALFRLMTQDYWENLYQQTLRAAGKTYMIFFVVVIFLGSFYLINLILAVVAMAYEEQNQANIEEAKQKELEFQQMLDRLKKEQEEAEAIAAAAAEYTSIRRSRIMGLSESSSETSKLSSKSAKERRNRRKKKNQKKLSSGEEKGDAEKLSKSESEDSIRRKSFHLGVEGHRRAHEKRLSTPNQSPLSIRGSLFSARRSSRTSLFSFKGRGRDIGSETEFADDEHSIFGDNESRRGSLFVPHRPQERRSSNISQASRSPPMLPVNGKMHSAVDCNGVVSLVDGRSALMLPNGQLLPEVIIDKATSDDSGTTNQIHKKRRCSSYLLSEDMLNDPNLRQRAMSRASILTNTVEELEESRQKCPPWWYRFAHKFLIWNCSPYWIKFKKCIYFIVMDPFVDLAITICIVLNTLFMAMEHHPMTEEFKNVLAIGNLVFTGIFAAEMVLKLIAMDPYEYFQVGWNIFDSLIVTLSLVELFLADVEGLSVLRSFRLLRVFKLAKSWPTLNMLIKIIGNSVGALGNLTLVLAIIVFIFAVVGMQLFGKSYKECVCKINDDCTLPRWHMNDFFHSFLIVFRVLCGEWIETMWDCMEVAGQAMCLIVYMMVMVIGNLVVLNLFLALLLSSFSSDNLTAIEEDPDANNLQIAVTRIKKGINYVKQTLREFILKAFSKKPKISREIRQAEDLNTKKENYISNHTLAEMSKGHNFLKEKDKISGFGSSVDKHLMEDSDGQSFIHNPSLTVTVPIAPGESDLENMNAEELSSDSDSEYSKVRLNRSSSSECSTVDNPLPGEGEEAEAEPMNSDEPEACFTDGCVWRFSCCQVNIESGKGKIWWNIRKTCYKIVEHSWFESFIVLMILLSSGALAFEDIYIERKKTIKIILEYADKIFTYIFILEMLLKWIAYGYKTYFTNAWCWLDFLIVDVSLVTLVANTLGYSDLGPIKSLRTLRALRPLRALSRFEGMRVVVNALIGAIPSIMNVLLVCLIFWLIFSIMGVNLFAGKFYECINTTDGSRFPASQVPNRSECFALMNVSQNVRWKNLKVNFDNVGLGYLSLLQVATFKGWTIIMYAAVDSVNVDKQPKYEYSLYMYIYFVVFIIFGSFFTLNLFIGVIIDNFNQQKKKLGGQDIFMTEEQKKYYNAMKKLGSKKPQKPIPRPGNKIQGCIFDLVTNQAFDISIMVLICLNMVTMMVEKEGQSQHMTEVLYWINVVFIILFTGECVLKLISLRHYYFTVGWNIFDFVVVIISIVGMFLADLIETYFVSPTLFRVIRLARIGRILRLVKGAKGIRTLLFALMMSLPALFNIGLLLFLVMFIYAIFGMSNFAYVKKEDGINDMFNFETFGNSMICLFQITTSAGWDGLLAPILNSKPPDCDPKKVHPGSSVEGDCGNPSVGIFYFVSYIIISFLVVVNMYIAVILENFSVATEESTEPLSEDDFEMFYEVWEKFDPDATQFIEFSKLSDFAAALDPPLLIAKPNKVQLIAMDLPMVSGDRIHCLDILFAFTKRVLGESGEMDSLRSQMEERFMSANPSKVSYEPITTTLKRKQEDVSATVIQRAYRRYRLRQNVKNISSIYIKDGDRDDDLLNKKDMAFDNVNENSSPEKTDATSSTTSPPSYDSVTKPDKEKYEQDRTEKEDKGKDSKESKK
- Assay overview: PatchXpress 7000 automated patch-clamp, sodium current
- Type: cell-based
- Assay setup: 22° C., read-out: potency for the Nav 1.7 sodium ion channel (as measured by PatchXpress)
- Description: To measure state and use-dependent sodium channel inhibition, test compounds were further characterized in an automated PatchXpress® assay (Molecular Devices). Two voltage-clamp protocols were used. […] For all electrophysiology experiments, offline analysis was used to correct for current rundown and to determine percent inhibition as a function of drug concentration. IC50 values were determined by fitting to the Hill equation.
Give bare numbers, as −log10 of the molar value.

Consider the reported pIC50 for these compounds:
1. CC(c1cccc2c1CNCC2)n1c(=O)oc2cc(S(=O)(=O)Nc3ncns3)ccc21 (stereo not drawn) ... 7.21
2. C[C@H](c1ccccc1C#CC1CNC1)n1c(=O)oc2cc(S(=O)(=O)Nc3ncns3)c(F)cc21 ... 7.51
3. O=c1oc2cc(S(=O)(=O)Nc3ncns3)c(F)cc2n1C(c1ccccc1)C1CC1 (stereo not drawn) ... 6.84
4. NC1CCc2cccc(Cn3c(=O)oc4cc(S(=O)(=O)Nc5ncns5)ccc43)c2C1 (single isomer, unassigned) [Compound 23-10] ... 6.75
5. O=c1oc2cc(S(=O)(=O)Nc3ncns3)c(F)cc2n1C[C@H]1C[C@@H]1I ... 6.52

Each compound below has a recorded value; state its pIC50.
1. O=c1oc2cc(S(=O)(=O)Nc3ncns3)c(F)cc2n1Cc1cccc2c1CC(N1CCC1)CC2 (racemic)
2. O=c1oc2cc(S(=O)(=O)Nc3ncns3)c(F)cc2n1C1CCCc2ccccc21 (stereo not drawn)
3. O=c1oc2cc(S(=O)(=O)Nc3ncns3)c(F)cc2n1Cc1cccc2c1CC(O)CC2 (stereo not drawn)
4. C[C@H](c1ccccc1C#CC1(N)CCCCC1)n1c(=O)oc2cc(S(=O)(=O)Nc3ncns3)c(F)cc21
5. C[C@@H](c1cccc2c1CNCC2)n1c(=O)oc2cc(S(=O)(=O)Nc3ncns3)ccc21
6. CC(=O)N1CCc2cccc(Cn3c(=O)oc4cc(S(=O)(=O)Nc5ncns5)ccc43)c2C1
7. O=c1oc2cc(S(=O)(=O)Nc3nccs3)c(F)cc2n1C1CCCc2c(F)cc(F)cc21 (stereo not drawn)
8. C[C@H](c1ccccc1C#CCN1CCS(=O)(=O)CC1)n1c(=O)oc2cc(S(=O)(=O)Nc3ncns3)c(F)cc21

7.49
6.77
6.92
7.92
6.46
6.28
7.17
6.91

Each compound below has a recorded value; state its pIC50.
1. C[C@H](c1ccccc1C1CNC1)n1c(=O)oc2cc(S(=O)(=O)Nc3ncns3)c(F)cc21
2. C[C@H](c1ccccc1C1=CCN(S(C)(=O)=O)CC1)n1c(=O)oc2cc(S(=O)(=O)Nc3ncns3)c(Cl)cc21

1. 7.82
2. 6.28
